tested on: KM12 colon; assay: NCI tumour cell line growth inhibition, 48 h
Catalogue of TGI readings, one per entry.

Examples with answers:
INSERT INTO results (molecule, reading) VALUES
  ('OCC1OC(n2cnc3c(Cl)nc(Nc4ccccc4)nc32)CC1O (stereo unspecified)', '> 100 µM'),
  ('COC(=O)/C(C#N)=C1\CCC(O)N1 (stereo unspecified)', '> 100 µM'),
  ('CC(C)N=c1cc2n(-c3ccc(Cl)cc3)c3ccccc3nc-2cc1Nc1ccc(Cl)cc1', '> 50 µM'),
  ('CCCSc1ccc2[nH]c(/N=C/c3ccco3)cc2c1', '> 100 µM'),
  ('O=C1OC2(OC2c2ccccc2)c2ccccc21 (stereo unspecified)', '> 100 µM');

Item under review: O=C1Nc2c(ccc(Cl)c2I)C1=O . Reported TGI?
65.6 µM

Fill in: TGI of Cc1cc[c-]cc1.Fc1c[c-]c(-c2ccccn2)c(F)c1.[Pt+2].c1ccc(P(C[PH+](c2ccccc2)c2ccccc2)c2ccccc2)cc1 is ___
9.23 µM

Record request: TGI value, item NC(CS/C(Cl)=C/Cl)C(=O)O (stereo unspecified)
> 100 µM

Which TGI reading was recorded for the molecule CC(C)OC(=O)NNc1cc(Cl)ccc1Cl ?
> 100 µM

Entry Cc1cc(N/N=C/c2nc(-c3ccc(Br)cc3)oc2C)c2cc(Br)ccc2n1 : reported TGI = ?
5.71 µM

// lookup TGI for O=C(Nc1ccc(CO)cc1)c1coc2ccccc2c1=O
> 100 µM
